subject.of.test: h-GABA-A α5β3γ2 (Homo sapiens, UniProt P18507+P31644)
Construct: expressed in transfected cells; host or cells: Xenopus laevis oocytes, micro-injected with subunit RNA
test.method.notes: [3H]flumazenil competition binding assay on membranes of HEK293 cells expressing GABAA receptors
settings: Table 1; displacement of [3H]-Flumazenil (0.5 nM), HEK293 cells expressing human receptors, means of two determinations
Returns: string. Value is t if measured Ki is below 20 nM, and f if it is greater than or equal to it.

Please determine if Cn1cc(-c2cnn(Cc3c(-c4ccc(Cl)cc4F)nnn3C)c(=O)c2)cn1 [Example 64] is below 20 nM in terms of Ki.
t

Please determine if Cn1nnc(-c2ccc(C(F)(F)F)cc2F)c1Cn1ncc(N2CC(OC3CCC3)C2)cc1=O [Example 77] is below 20 nM in terms of Ki.
t

Please determine if Cn1nnc(-c2ccc(Cl)cc2F)c1Cn1ncc(N2CC(OC(F)F)C2)cc1=O [Example 53] is below 20 nM in terms of Ki.
t

Please determine if CC(C)OC1CN(c2cnn(Cc3c(-c4ncc(C(F)(F)F)cn4)nnn3C)c(=O)c2)C1 [Example 116] is below 20 nM in terms of Ki.
f

Please determine if Cn1nnc(-c2ccc(Cl)cc2)c1Cn1ncc(N2CC(OCC(F)F)C2)cc1=O [Example 60] is below 20 nM in terms of Ki.
f

Please determine if CCOC1CN(c2cnn(Cc3c(-c4ccc(C(F)(F)F)cc4F)nnn3C)c(=O)c2)C1 [Example 72] is below 20 nM in terms of Ki.
t

Please determine if CCOC1CN(c2cnn(Cc3c(-c4ncc(C(F)(F)F)cn4)nnn3C)c(=O)c2)C1 [Example 115] is below 20 nM in terms of Ki.
f

Please determine if Cc1nnn(-c2ccc(Cl)cc2F)c1Cn1ncc(N2CCO[C@@H](C)C2)cc1=O [Example 35] is below 20 nM in terms of Ki.
t

Please determine if Cn1nnc(-c2ccc(Cl)cc2F)c1Cn1ncc(N2CC(Oc3ccc(Cl)cn3)C2)cc1=O [Example 80] is below 20 nM in terms of Ki.
t

Please determine if CCOc1ccc(-c2cnn(Cc3c(-c4ccc(Cl)cc4F)nnn3C)c(=O)c2)cn1 [Example 103] is below 20 nM in terms of Ki.
t

Please determine if Cc1nnn(-c2ccc(Cl)cc2F)c1Cn1ncc(-c2ccnc(C(F)(F)F)c2)cc1=O [Example 57] is below 20 nM in terms of Ki.
f

Please determine if Cn1nnc(-c2ccc(C(F)(F)F)cc2F)c1Cn1ncc(N2CC(OCC(F)F)C2)cc1=O [Example 76] is below 20 nM in terms of Ki.
t

----------
subject.of.test: h-GABA-A α5β3γ2 (Homo sapiens, UniProt P18507+P31644)
Construct: expressed in transfected cells; host or cells: Xenopus laevis oocytes, micro-injected with subunit RNA
test.method.notes: Two-electrode voltage clamp electrophysiology in Xenopus oocytes expressing GABAA receptors (modulation of GABA EC20 current)
Type: cell-based
settings: Table 1; Xenopus oocytes, GABA EC20, test compound at approximatively 30 fold its Ki
Procedure: Xenopus laevis oocytes at maturation stages V-VI were used for the expression of cloned mRNA encoding GABAA receptor subunits. Oocytes ready for RNA micro-injection were bought from Ecocyte, Castrop-Rauxel, Germany and stored in modified Barth's medium (composition in mM: NaCl 88, KCl 1, NaHCO3 2.4, HEPES 10, MgSO4 0.82, CaNO3 0.33, CaCl2 0.33, pH=7.5) at 20° C. until the experiment. […]
Returns: string. Value is criterion met if measured Fold increase h-GABA-A α5β3γ2 oocyte is below 2, and criterion not met if it is greater than or equal to it.

Field: example entries. Status: answers known.
[[record]]
compound_structure_string = "CN(C)c1cnn(Cc2c(-c3ccc(Cl)cc3F)nnn2C)c(=O)c1"
label = "criterion met"

[[record]]
compound_structure_string = "Cc1ccc(-c2nnn(C)c2Cn2ncc(N3CCC[C@H]3C)cc2=O)cn1"
label = "criterion met"

[[record]]
compound_structure_string = "C[C@H]1CN(c2cnn(Cc3c(-c4ccc(Cl)cc4F)nnn3C)c(=O)c2)CCO1"
label = "criterion not met"

[[record]]
compound_structure_string = "Cc1ccc(-c2nnn(C)c2Cn2ncc(N3CCC(C)(C)C3)cc2=O)cn1"
label = "criterion not met"

[[record]]
compound_structure_string = "CCn1nnc(-c2ccc(Cl)cc2F)c1Cn1ncc(N2CC(Oc3cccnn3)C2)cc1=O"
label = "criterion not met"

[[record]]
compound_structure_string = "CCOc1ccc(-c2cnn(Cc3c(-c4ccc(Cl)cc4F)nnn3C)c(=O)c2)cn1"
label = "criterion not met"


Please determine if "Cn1nnc(-c2ccc(Cl)cc2F)c1Cn1ncc(N2CC(Oc3ccc(Cl)cn3)C2)cc1=O" is below 2 in terms of Fold increase h-GABA-A α5β3γ2 oocyte.
criterion met
